- ASSAY SYSTEM: HEX-1 (Caenorhabditis elegans, UniProt Q22492)
- Sequence (Q22492 19-555 limits assumed): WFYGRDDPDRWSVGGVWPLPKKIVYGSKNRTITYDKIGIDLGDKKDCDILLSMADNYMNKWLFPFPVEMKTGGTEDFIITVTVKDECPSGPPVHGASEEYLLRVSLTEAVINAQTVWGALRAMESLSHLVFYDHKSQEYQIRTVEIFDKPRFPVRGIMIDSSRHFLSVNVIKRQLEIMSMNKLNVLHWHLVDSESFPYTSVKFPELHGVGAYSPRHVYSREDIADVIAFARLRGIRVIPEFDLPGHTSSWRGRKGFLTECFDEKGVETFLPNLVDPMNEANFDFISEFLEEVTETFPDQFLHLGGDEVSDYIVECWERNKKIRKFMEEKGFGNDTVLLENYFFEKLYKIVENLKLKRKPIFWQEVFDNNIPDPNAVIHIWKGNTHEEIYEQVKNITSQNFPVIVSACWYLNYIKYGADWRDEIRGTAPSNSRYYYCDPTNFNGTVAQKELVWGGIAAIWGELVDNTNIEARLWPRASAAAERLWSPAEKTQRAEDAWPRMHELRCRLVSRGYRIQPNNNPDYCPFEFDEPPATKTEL
pKi: −log10 of the molar value.
READOUT NAME: pKi

query: Fill in the blank: the reported pKi of `CC(=O)N[C@H]1/C(=N/OC(=O)Nc2ccccc2)O[C@H](CO)[C@@H](O)[C@@H]1O` is ____.
result: ~5.70

query: // next record `CC(=O)N[C@H]1CN[C@H](CO)[C@@H](O)[C@@H]1O`
result: ~3.00
